Assay: qHTS RealTime-Glo MT Cell Viability Assay in HEK293 cells - 0 hour (AID 1224880); also: top concentration of the series differs between compounds; nearly all actives have a fitted effect of over 45% in size
Conditions: RealTime-Glo luminescence; series mostly up to 76.8 µM
Results filed as inconclusive are left out. The source made the active and inactive calls. Calls follow the shape of the dose curve; as a rule, active = well fitted cell-killing curve with a large enough effect in the repeat runs; inconclusive = weak or mixed curves, or effect the other way; inactive = flat fitted curve, though single readings scatter.
readoutLabel: activity change, negative = cytotoxicity

Known activity change, negative = cytotoxicity results, listed for orientation:
[
  {
    "compound": "CCOC(=O)Nc1ccc(NCc2ccc(F)cc2)nc1N",
    "readoutLabel": "activity change, negative = cytotoxicity",
    "valueMeasured": "inactive"
  },
  {
    "compound": "C=C(C)CS(=O)(=O)O",
    "readoutLabel": "activity change, negative = cytotoxicity",
    "valueMeasured": "inactive"
  },
  {
    "compound": "CN1CC(=O)NC1=N",
    "readoutLabel": "activity change, negative = cytotoxicity",
    "valueMeasured": "inactive"
  },
  {
    "compound": "NCCc1cnc[nH]1",
    "readoutLabel": "activity change, negative = cytotoxicity",
    "valueMeasured": "inactive"
  },
  {
    "compound": "COC(=O)CC(C)=O",
    "readoutLabel": "activity change, negative = cytotoxicity",
    "valueMeasured": "inactive"
  }
]

Q: Reported activity change, negative = cytotoxicity, compound N#Cc1ccc(C2CCCc3cncn32)cc1 (stereo not drawn) : ____
Ans: inactive

Q: Now consider "c1cnc(N2CCN(Cc3ccc4c(c3)OCO4)CC2)nc1" .
Ans: inactive

Q: Now consider "CC(C)c1cc2c(cc1S(=O)(=O)O)[C@@]1(C)CCC[C@@](C)(C(=O)O)[C@@H]1CC2" .
Ans: inactive
